Target: Potassium channel subfamily K member 3 (Homo sapiens) (UniProt O14649)
Sequence (O14649 whole entry, looked up): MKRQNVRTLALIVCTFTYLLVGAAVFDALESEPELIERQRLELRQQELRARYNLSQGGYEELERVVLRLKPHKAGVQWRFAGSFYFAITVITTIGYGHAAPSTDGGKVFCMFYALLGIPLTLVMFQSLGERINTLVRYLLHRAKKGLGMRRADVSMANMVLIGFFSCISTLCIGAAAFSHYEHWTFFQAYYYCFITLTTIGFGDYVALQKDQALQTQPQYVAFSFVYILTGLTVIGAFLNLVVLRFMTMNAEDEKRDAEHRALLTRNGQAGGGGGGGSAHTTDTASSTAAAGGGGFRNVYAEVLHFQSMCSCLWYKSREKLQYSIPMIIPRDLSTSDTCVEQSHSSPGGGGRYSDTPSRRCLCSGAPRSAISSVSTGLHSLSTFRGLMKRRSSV
Test: human KCNK3 channel inhibitors, primary screen, CHO cells, FluxOR thallium flux, B-score (AID 602410);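 on B-score: more negative B-score means stronger inhibition of thallium flux through KCNK3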
Conditions: FluxOR fluorescence, at 10 µM
Hit rate of the full screen: of about 340,000 compounds, about 2,800 (0.82%) were called active.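 How the source made its calls: active means B-score under library mean minus 4 SD, starting fluorescence ratio at most library mean plus 5 SD; inactive means the rest.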 The list comes from a sample in which actives are over-represented; it also holds close analogues and randomly drawn compounds.
Would you mind answering with one of these outcomes? label 1 = active, label 0 = inactive

Query: recorded result category for C=CCNC(=O)c1ccccc1NC(=O)c1ccc(Cl)c(S(=O)(=O)Nc2cccc(C)c2C)c1 in this test label 0

Which result was noted for this compound in the test: C=CCOc1cccc(C2C(C(=O)c3ccc(C)o3)=C(O)C(=O)N2c2nnc(C)s2)c1 (configuration not stated) label 0

# fetch the recorded call for N#Cc1c(NC(=O)CCCN2C(=O)c3ccccc3C2=O)oc(-c2ccccc2)c1-c1ccccc1 here label 0

Can you look up the reported call for COc1cc(C(=O)Nc2oc(-c3ccccc3)c(-c3ccccc3)c2C#N)cc(OC)c1OC for me? label 1

Per the records of this test, what outcome belongs to CC(=O)OCC(=O)C1(O)CCC2C3CC(C)C4=CC(=O)CCC4(C)C3C(O)CC21C (configuration not stated) ? label 0

Each compound tested received a call. Report the one for O=C(NC(=S)N1CCCCC1c1cccnc1)c1ccccc1 (configuration not stated) . label 0

Write down the call the test reported for this compound. Item: CC(NCc1cccs1)C(=O)Nc1cc(Cl)cc(Cl)c1 (configuration not stated) label 1

These measurements were taken from PubChem BioAssay AID602410.
